molecular target: T1, Anti-PSMA Fab (SEQ ID NOs: 19, 20); test: phage binding ELISA; biotinylated PSMA Fab on neutravidin plate, clonal phage supernatant, anti-M13 HRP detection;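 also: wells were preincubated with blocking buffer either containing PSMA antigen or without it before crude phage supernatant was added, briefly incubated, then washed prior to detection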
T1 construct: also called 006 PSMA Fab
metric.name: Anti-PSMA Fab (SEQ ID NOs: 19, 20) signal

| binder | number |
| --- | --- |
| ITPICKPAWICSGF (tested as clonal phage supernatant) [Phage-1806] | 2.2 |
| VVIKCKPEWMCSGF (tested as clonal phage supernatant) [Phage-1807] | 2.18 |
| VLKYCIPDWMCAGI (tested as clonal phage supernatant) [Phage-1816] | 2.24 |
| IVVKCVPSWMCEGF (tested as clonal phage supernatant) [Phage-1812] | 2.4 |
| PEHLCLPRWMCEGF (tested as clonal phage supernatant) [Phage-1808] | 1.78 |
| VERLCTPAWMCHGF (tested as clonal phage supernatant) [Phage-1815] | 2.36 |
| ITPVCKPLWMCSGL (tested as clonal phage supernatant) [Phage-1804] | 2.35 |
| LEPLCVPRWMCVGF (tested as clonal phage supernatant) [Phage-1803] | 2.36 |
| VNHWCVPTWMCAGF (tested as clonal phage supernatant) [Phage-1811] | 2.41 |
| VEVKCFPLWFCVGL (tested as clonal phage supernatant) [Phage-1805] | 2.23 |
| YERACIPNWICEGF (tested as clonal phage supernatant) [Phage-1809] | 1.03 |
| TTHVCIPSWMCSGF (tested as clonal phage supernatant) [Phage-1810] | 2.15 |
| TVAYCKPAWMCQGF (tested as clonal phage supernatant) [Phage-1813] | 2.37 |
| TEVRCTPPWMCLGF (tested as clonal phage supernatant) [Phage-1814] | 2.36 |

Where do these numbers come from? They come from patent US20260242478A1.
